target: α-glucosidase; assay: pNPG colorimetric enzyme kinetics (Lineweaver–Burk; IC50 […]), supported by fluorescence quenching and circular dichroism
observation-type: Ki (µM)
Write the answer as a number in µM, unit excluded.

Lookup result for COc1c(O)cc2oc3cc(O)c(CC=C(C)C)c(O)c3c(=O)c2c1CC=C(C)C ; measured Ki: 30.3
